For each of the compounds below, state its Ryegrass, Italian plant response rating.
# System: ryegrass, Italian
# Assay Comment: Test C preemergence
# Type: in vivo, Lolium multiflorum
# Test Conditions: preemergence, 62 g ai/ha; scale 0 to 100 (0 no effect, 100 complete control), 13 to 15 days
Just the number, please.

Which Ryegrass, Italian plant response rating is reported for this compound? CCCNC(=O)c1cc(CCF)n(Cc2ccnc(C(F)(F)F)c2)n1 40

Ryegrass, Italian plant response rating lookup needed for CCOc1cc(C(=O)NCC(F)(F)F)nn1Cc1ccnc(OC(F)F)c1 , thanks. 70

Any idea what its Ryegrass, Italian plant response rating is? The compound is CCOc1cc(C(=O)NOC(C)C)nn1Cc1ccnc(C(F)(F)F)c1 50

Ryegrass, Italian plant response rating for CCc1cc(C(=O)NCC(F)(F)F)nn1Cc1ccnc(SC(F)(F)F)c1 ? 30

Quick check: Ryegrass, Italian plant response rating of CCCc1cc(C(=O)NC(C)C)nn1Cc1ccnc(C(F)(F)F)c1 ? 80

Can you share its Ryegrass, Italian plant response rating? I mean this compound: CCc1cc(C(=O)NC2CC2)nn1Cc1ccnc(Br)c1 0

# get_value(readout='Ryegrass, Italian plant response rating', item= CCCc1cc(C(=O)NCC(F)(F)F)nn1Cc1ccnc(OC(F)F)c1 ) 60
